// values below are reported IC90, IL-8 release, human primary keratinocytes (NHK), trun-IL-36g
- Target: T1, human IL-36R on cells (human, UniProt Q9HB29 20-575)
- T1 sequence (looked up): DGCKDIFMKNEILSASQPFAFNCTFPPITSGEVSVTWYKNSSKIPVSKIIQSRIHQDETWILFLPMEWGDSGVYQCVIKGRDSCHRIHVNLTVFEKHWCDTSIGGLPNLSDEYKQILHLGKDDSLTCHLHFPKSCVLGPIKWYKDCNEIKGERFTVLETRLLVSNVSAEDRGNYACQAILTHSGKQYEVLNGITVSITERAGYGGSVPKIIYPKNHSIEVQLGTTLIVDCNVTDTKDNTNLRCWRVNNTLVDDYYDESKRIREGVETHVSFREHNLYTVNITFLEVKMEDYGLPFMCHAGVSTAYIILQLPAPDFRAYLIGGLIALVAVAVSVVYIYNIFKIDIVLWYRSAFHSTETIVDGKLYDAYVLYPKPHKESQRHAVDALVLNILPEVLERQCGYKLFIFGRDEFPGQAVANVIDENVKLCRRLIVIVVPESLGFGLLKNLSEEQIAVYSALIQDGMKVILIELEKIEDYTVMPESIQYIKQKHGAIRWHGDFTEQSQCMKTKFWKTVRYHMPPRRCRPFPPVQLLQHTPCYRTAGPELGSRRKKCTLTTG
- Protocol Summary: cell-based or functional assay
Measured Metric: IC90, IL-8 release, human primary keratinocytes (NHK), trun-IL-36g (nM)

| Binder | Observed Measurement |
| --- | --- |
| antibody 81B4 (antibody, V domains shown, Mouse monoclonal from hybridoma; also called 81B4E11; Mouse 81B4) VH: QVQLQQPGADFVRPGASMRLSCKASGYSFTSSWIHWVKQRPGQGLEWIGEINPGNVRTNYNENFRNKATLTVDKSSTTAYMQLRSLTSADSAVYYCTVVFYGEPYFPYWGQGTLVTVSA VL: QIVLTQSPAIMSASLGERVTMTCTASSSVSSSYFHWYQQKPGSSPKLWIYRTSNLASGVPGRFSGSGSGTSYSLTISSMEAEDAATYYCHQFHRSPLTFGAGTKLELK | 0.5 |
| antibody 33D10 (antibody, V domains shown, Mouse monoclonal from hybridoma; also called 33D10B12; Mouse 33D10) VH: QVQLQQSGTELLKPGASVKLSCKASGNTVTSYWMHWVKQRPGQGLEWIGEILPSTGRTNYNENFKGKAMLTVDKSSSTAYMQLSSLASEDSAVYYCTIVYFGNPWFAYWGQGTLVTVSA VL: QIVLTQSPAIMSASLGERVTMTCTASSSVSSSYLHWYQKKPGSSPKLWVYSTSNLASGVPVRFSGSGSGTSYSLTISSMEAEDAATYYCHQHHRSPVTFGSGTKLEMK | 0.8 |
| antibody 73C5 (antibody, V domains shown, Mouse monoclonal from hybridoma; also called 73C5C10; Mouse 73C5) VH: QVQLKESGPGLVAPSQSLSITCTVSGFSLTNYAVHWVRQFPGKGLEWLGVIWSDGSTDFNAPFKSRLSINKDNSKSQVFFKMNSLQIDDTAIYYCARKGGYSGSWFAYWGQGTLVTVSA VL: DIVMTQSQKFLSTSVGVRVSVTCKASQDVGTNVLWYQQKIGQSPKPLIYSASYRHSGVPDRFTGSGSGTDFTLIISNVQSEDLAEYFCQQYSRYPLTFGPGTKLELK | 2.4 |
| antibody 73F6 (antibody, V domains shown, Mouse monoclonal from hybridoma; also called 73F6F8; Mouse 73F6) VH: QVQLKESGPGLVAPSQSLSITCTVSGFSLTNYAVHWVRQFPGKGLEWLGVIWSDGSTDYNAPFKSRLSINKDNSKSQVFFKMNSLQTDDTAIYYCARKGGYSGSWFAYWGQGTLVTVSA VL: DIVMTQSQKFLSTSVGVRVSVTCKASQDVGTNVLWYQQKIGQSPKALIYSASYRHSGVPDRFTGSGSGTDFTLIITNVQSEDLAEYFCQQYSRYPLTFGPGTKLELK | 2.1 |
